- target_of_assay: AQ STING (G230A-R293Q) (Homo sapiens, UniProt Q86WV6, G230A/H232R/R293Q)
- Construct: truncated human WT STING or AQ STING (amino acid residues 140-343); 8xHis (N, cleaved yes); SUMO (N, cleaved yes); made in house; host or cells: E. coli Rosetta-gami B (DE3)
- Sequence (Q86WV6 140-343 G230A/H232R/R293Q): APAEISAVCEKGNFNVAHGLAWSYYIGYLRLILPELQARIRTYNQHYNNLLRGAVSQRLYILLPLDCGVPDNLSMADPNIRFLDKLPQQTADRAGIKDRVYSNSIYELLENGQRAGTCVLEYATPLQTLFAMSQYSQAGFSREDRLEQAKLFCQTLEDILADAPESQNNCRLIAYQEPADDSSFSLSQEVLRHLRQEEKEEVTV
- measurement_protocol: Differential Scanning Fluorimetry with AQ STING
- Format: binding
- conditions: thermal shift, truncated human AQ STING 0.1 mg/ml, 150 μM CDN; read-out: DSF ΔTm AQ STING
measurement_name: ΔTm at 150 µM (°C)
Your answer is read as °C, so omit the unit and give the number.

These solved cases illustrate the format of a correct answer.
| molecule | ΔTm at 150 µM (°C) |
| --- | --- |
| Nc1nc2c(ncn2[C@@H]2O[C@@H]3COP(=O)(O)OC4C(F)[C@H](n5cnc6c(=O)[nH]c(N)nc65)O[C@@H]4COP(=O)(O)COC3C2F)c(=O)[nH]1 (stereo partly drawn) [Example 16] | 10.7 |
| Nc1nc2c(ncn2[C@H]2CC3OCP(=O)(O)OC[C@H]4O[C@@H](n5cnc6c(N)ncnc65)C(F)C4OP(=O)(O)OC[C@H]3O2)c(=O)[nH]1 (stereo partly drawn) [Example 14] | 11.2 |

Next:
The reported ΔTm at 150 µM of the molecule Nc1nc2c(ncn2[C@@H]2O[C@@H]3COP(=O)(O)OC4C(O)[C@H](n5cnc6c(N)ncnc65)O[C@@H]4COP(=O)(O)COC3C2F)c(=O)[nH]1 (stereo partly drawn) [Example 11] was 11.3
